Each recorded value in this set is attributed to PubChem BioAssay (NCI).

assay: NCI Yeast Anticancer Drug Screen. Data for the cln2 rad14 strain (AID 165);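 further: 0% = growth equal to vehicle treated cultures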; conditions: S. cerevisiae cln2 rad14 strain, at 50.0 µM, active compounds read high
This is part of a sample that, as a whole, favours compounds with a hit. Of some 79,000 tested, about 15% had one in any assay.
measurementName: growth inhibition (%)
Report as a plain number; the unit % is understood.

Some solved entries appear below for comparison.
compound	unitsSymbol	growth inhibition
CCOC(=O)c1cnc2cc(C)cc(C)c2c1Nc1ccc2c(c1)OCO2	%	-36
CN(C)CCCCC(C#N)(c1ccccc1)c1ccccc1	%	12.7
Cc1ccc(S(=O)(=O)OCC2COC(C(C)C)OC2)cc1 (stereo unspecified)	%	2.15
NC1=NNC(=O)/C1=C/c1ccccc1	%	-17.1
CC(=O)C1=CCC2[C@H]3CC=C4C[C@H](O)CC[C@@]4(C)C3CC[C@@]12C (stereo partly specified)	%	17.9

Please give measured growth inhibition of the following entry: c1ccc(C[S][Sn]([c]2ccccc2)([c]2ccccc2)[c]2ccccc2)cc1
94.4

Please give measured growth inhibition of the following entry: CC(C)=CCOc1cc(NC(=S)c2ccsc2C)ccc1Cl
-22.4

Please give measured growth inhibition of the following entry: CC1(C)OCC2OC(n3cnc4c(N)nc(Cl)nc43)C(OS(C)(=O)=O)C2O1 (stereo unspecified)
8.7

Please give measured growth inhibition of the following entry: COc1cc2c(cc1OC)C(=O)/C(=C/c1ccccc1)CC2
11.8

Please give measured growth inhibition of the following entry: O=C1C(N=Nc2ccccc2)Sc2nc3ccccc3n21 (stereo unspecified)
-52

Please give measured growth inhibition of the following entry: Clc1cccc(-c2sc(-c3cccs3)cc2Cc2cccs2)c1
2.2

----------
assay: NCI Yeast Anticancer Drug Screen. Data for the sgs1 mgt1 strain (AID 161);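 further: 0% = growth of cultures given vehicle only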; conditions: S. cerevisiae sgs1 mgt1 strain, at 50.0 µM, active compounds read high
This is part of a sample that, as a whole, favours compounds with a hit. Of some 79,000 tested, about 15% had one in any assay. Where a SMILES comes first, the peptide text is derived from it. The star is where a group is joined. OtBu = CC(C)(C)O*
measurementName: growth inhibition (%)
Report as a plain number; the unit % is understood.

Some solved entries appear below for comparison.
compound	growth inhibition, %
CC(C)(C)N=Cc1ccccc1[O-].CC(C)(C)N=Cc1ccccc1[O-].[Co+2]	-14.5
O=C(C[n+]1cccc(Cl)c1)c1ccccc1	7.9
CCN(CC)CCOC1(Cc2ccccn2)CCCCC1	6.7
Cc1cc(C)[n+](C)c(/C=C/c2ccc([N+](=O)[O-])cc2)n1	15.6
O=C1C2=Cc3ccccc3OC2(O)Oc2ccc(O)cc21 (stereo unspecified)	-6.05

Please give measured growth inhibition of the following entry: CC(C)=NNC(=O)c1ccc([N+](=O)[O-])cc1
2.1

Please give measured growth inhibition of the following entry: O=C1c2ccccc2OC(Cl)(c2ccccc2)C1Cl (stereo unspecified)
-7.5

Please give measured growth inhibition of the following entry: C/C=C(\C)C(=O)OCC1=CCC2CCC(O)N12 (stereo unspecified)
0.1

Please give measured growth inhibition of the following entry: CCCCCCC(=O)/C=C/c1ccc(Cl)cc1
-3.1

Please give measured growth inhibition of the following entry: CC(C)CC(NC(=O)C1CCCN1)C(=O)NC(CC(C)C)C(=O)OC(C)(C)C (stereo not drawn) (H-Pro-Leu-Leu-OtBu; configuration not given here)
29.1

Please give measured growth inhibition of the following entry: Clc1cccc2nc(-c3ccccn3)n(CCc3ccncc3)c12
84.7

Please give measured growth inhibition of the following entry: Cc1nnc(-c2ccccc2)s1
-3.2
